meta.source: PubChem BioAssay AID2060885

Tested on: NCI-H23 complex spheroids with HUVEC/MSC, viability
Method: Anticancer human tumor NCI-H23 cell line growth inhibition [RAS]; active = viability on the fitted dose curve at most 10% of control; inactive = the rest;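 also: spheroids exposed to compound for 7 days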
Measurement Conditions: second compound 0.0949 µM; first compound 0.03 µM
From the text: RAS pathway inhibitors in Combinations in Complex Spheroids A high-throughput screen of multi-cell type tumor spheroids was designed to identify active combinations of RAS pathway inhibitors and targeted small molecules. Complex spheroids include a stromal component modeled by human endothelial cells (HUVEC) and fibroblasts modeled by human mesenchymal stem cells (MSCs). […] Compounds. […] If the clinical Cmax for an agent had not been determined, the highest concentration tested was 10 microM. […]
Select the correct class. Options are active, inactive and nothing else.

Input: Assay result, entry CC1(C)CCC(Nc2ncc(C(F)(F)F)c(-c3c[nH]c4c(P(C)(C)=O)c(C#N)ccc34)n2)CN1 (centres undefined) + CCn1c(-c2cc(N3CCN(C)CC3)cnc2C(C)OC)c2c3cc(ccc31)-c1csc(n1)CC(NC(=O)C1CC1C)C(=O)N1CCCC(N1)C(=O)OCC(C)(C)C2 — outcome?
Output: inactive

Input: Please answer likewise for CCc1c2c(nc3ccc(O)cc13)-c1cc3c(c(=O)n1C2)COC(=O)[C@]3(O)CC + CCn1c(-c2cccnc2C(C)OC)c2c3cc(ccc31)N1CCOC(CC(NC(=O)C(C(C)C)N(C)C(=O)C3(F)CCN(C(=O)C#CC(C)(C)N(C)C)CC3)C(=O)N3CCCC(N3)C(=O)OCC(C)(C)C2)C1
Output: active

Input: // same read-out, input: CC1(C)CCC(Nc2ncc(C(F)(F)F)c(-c3c[nH]c4c(P(C)(C)=O)c(C#N)ccc34)n2)CN1 (centres undefined) + CCn1c(-c2cccnc2C(C)OC)c2c3cc(ccc31)N1CCOC(CC(NC(=O)C(C(C)C)N(C)C(=O)C3(F)CCN(C(=O)C#CC(C)(C)N(C)C)CC3)C(=O)N3CCCC(N3)C(=O)OCC(C)(C)C2)C1
Output: inactive

Input: Repeat with CCc1c2c(nc3ccc(O)cc13)-c1cc3c(c(=O)n1C2)COC(=O)[C@]3(O)CC + CCn1c(-c2cc(N3CCN(C)CC3)cnc2C(C)OC)c2c3cc(ccc31)-c1csc(n1)CC(NC(=O)C1CC1C)C(=O)N1CCCC(N1)C(=O)OCC(C)(C)C2
Output: active
